Molecular target: T1, Human IL-13 (human, UniProt P35225 35-146)
T1 construct: also called human interleukin 13 (Peprotech); the antigen
T1 sequence (P35225 35-146 limits assumed): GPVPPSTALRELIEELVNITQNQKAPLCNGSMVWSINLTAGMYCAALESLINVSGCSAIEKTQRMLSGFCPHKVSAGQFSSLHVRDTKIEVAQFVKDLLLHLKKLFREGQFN
Assay: biochemical receptor-ligand inhibition assay, purified scFv titrated (second panel); the IL-13 receptor used is not named in Example 1
pIC50 values by entry
Keep in mind that pIC50 stands for -log10 of concentration in molar terms.

Check out these entries, answers already filled in.
BINDER	OBSERVED VALUE
13NG0078 (scFv, V domains shown, purified scFv from the mini-recombination library; member of group m20; also called ZZ0SFL-G06; copies: 1 + 1) VH: QVQLVQSGAEVKKPGASVKVSCKASGYTFTNYGLSWVRQAPGQGLEWVGWINYDGGNTQYGQEFQGRVTMTTDTSTSTAYMELRSLRSDDTAVYYCARDSSSSWARWFFDLWGRGTLVTVSS VL: SYVLTQPPSVSVAPGKTARIPCGGNLIAARLVHWYQQKPGQAPVLIMFDDQDRPSGIPERFSGSNSGNTATLTISRVETGDEADYYCQVWDTGSLPVVFGGGTKLTVL	8.14
13NG0079 (scFv, V domains shown, purified scFv from the mini-recombination library; member of group m20; also called ZZ0SEA-B02; copies: 1 + 1) VH: QVQLVQSGAEVKKPGASVKVSCKASGYTFTNYGLSWVRQAPGQGLEWMGWINYDGGNTQYGQEFQGRVTMTTDTSTSTAYMELRSLRSDDTAVYYCARDSSSSWARWFFDLWGRGTLVTVSS VL: SYVLTQPPSVSVAPGKTARIPCGGNLIGARLVHWYQQKPGQAPVLIVYDDMDRPSGIPERFSGSNSGNTATLTISRVEAGDEADYYCQVWDTGSLPVVFGGGTKLTVL	8.10
13NG0087 (scFv, V domains shown, purified scFv from the mini-recombination library; member of group m20; also called ZZ0SEF-E05; copies: 1 + 1) VH: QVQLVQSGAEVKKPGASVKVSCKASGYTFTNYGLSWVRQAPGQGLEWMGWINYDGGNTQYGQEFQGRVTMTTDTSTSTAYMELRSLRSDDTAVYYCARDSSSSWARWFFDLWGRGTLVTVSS VL: SYVLTQPPSVSVAPGKTARIPCGGNMVAARLVHWYQQKPGQAPVLIMFDDQDRPSGIPERFSGSNSGNTATLTISRVEAGDEADYYCQVWDTGSLPVVFGGGTKLTVL	8.15
13NG0080 (scFv, V domains shown, purified scFv from the mini-recombination library; member of group m20; also called ZZ0SEA-D07; copies: 1 + 1) VH: QAQLVQSGAEVKKPGASVKVSCKASGYTFTNYGLSWVRQAPGQGLEWMGWINYDGGNTQYGQEFQGRVTMTTDTSTSTAYMELRSLRSDDTAVYYCARDSSSSWARWFFDLWGRGTLVTVSS VL: SYVLTQPPSVSVAPGKTARIPCGGNLIAARLVHWYQQKPGQAPVLIVFDDEDRPSGIPERFSGSNSGNTATLTISRVETGDEADYYCQVWDTGSSPVVFGGGTKLTVL	7.95

Specify reported pIC50 for the binder shown: 13NG0081 (scFv, V domains shown, purified scFv from the mini-recombination library; member of group m20; the text gives two different numbers for the VH; also called ZZ0SE9-C11; copies: 1 + 1) VH: QVQLVQSGAEVKKPGASVKVSCKASGYTFTNYGLSWVRQAPGQGLEWVGWINYDGGNTQYGQEFQGRVTMTTDTSTSTAYMELRSLRSDDTAVYYCARDSSSSWARWFFDLWGRGTLVTVSS VL: SYVLTQPPSVSVAPGKTARIPCGGNLIGARLVHWYQQKPGQAPVLIVYDDMDRPSGIPERFSGSNSGNTATLTISRVEAGDEADYYCQVWDTGSRPVVFGGGTKLTVL
8.05
